Each recorded value in this set is attributed to patent US20210155689A1.

Target: T1, human LAG-3 (full length, on the cell surface) (human, UniProt P18627 23-525)
T1 construct: Full-length human LAG-3 expressed on cells; also called HEK293-hLAG-3; HEK293 cells transfected with LAG-3 gene
T1 sequence: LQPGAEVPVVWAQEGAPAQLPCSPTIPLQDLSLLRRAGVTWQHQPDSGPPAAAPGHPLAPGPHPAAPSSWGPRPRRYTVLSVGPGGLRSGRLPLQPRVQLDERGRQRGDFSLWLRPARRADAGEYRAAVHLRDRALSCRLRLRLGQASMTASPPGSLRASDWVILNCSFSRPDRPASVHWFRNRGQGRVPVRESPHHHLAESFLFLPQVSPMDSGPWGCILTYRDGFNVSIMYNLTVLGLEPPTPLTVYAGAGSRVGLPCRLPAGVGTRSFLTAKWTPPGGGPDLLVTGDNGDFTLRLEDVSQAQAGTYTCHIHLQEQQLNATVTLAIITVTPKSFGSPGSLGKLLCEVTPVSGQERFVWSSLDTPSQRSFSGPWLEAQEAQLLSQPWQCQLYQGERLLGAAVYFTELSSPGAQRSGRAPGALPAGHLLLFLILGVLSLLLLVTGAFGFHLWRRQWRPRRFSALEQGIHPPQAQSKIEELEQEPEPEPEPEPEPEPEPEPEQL
Experiment: FACS, HEK293-hLAG-3; 8.000 nM
metric.name: Mean fluorescence intensity (MFI)
Please respond with the number in MFI and leave the unit unwritten.

// worked examples, Mean fluorescence intensity included
105F1E10 (mouse antibody purified from hybridoma) (antibody, V domains shown, also called mAb009-105F1E10) VH: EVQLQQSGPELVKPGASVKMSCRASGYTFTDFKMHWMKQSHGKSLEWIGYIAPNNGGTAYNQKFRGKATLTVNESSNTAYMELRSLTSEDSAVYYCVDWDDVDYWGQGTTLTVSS VL: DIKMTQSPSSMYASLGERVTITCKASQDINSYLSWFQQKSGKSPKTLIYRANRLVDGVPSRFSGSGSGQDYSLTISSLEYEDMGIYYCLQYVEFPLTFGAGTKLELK	235
409D4E10 (mouse antibody purified from hybridoma) (antibody, V domains shown, also called mAb112-409D4E10) VH: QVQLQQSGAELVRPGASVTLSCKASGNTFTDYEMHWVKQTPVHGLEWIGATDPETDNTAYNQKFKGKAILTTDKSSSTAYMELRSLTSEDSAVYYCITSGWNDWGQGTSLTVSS VL: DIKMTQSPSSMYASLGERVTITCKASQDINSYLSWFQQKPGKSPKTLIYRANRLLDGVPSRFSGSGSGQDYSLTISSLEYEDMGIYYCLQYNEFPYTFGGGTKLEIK	123
409B11E12 (mouse antibody purified from hybridoma) (antibody, V domains shown, also called mAb104-409B11E12) VH: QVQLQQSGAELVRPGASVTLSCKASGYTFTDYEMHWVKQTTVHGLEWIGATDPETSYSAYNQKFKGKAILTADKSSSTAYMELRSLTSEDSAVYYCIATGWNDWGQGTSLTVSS VL: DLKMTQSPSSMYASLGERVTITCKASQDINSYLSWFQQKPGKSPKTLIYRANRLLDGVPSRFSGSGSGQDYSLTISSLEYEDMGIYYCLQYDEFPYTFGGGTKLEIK	112
405B8H3 (mouse antibody purified from hybridoma) (antibody, V domains shown, also called mAb103-405B8H3; 405B81-13) VH: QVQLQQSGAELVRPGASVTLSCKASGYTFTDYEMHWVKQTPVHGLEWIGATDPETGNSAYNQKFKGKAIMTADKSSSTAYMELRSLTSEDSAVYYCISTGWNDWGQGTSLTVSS VL: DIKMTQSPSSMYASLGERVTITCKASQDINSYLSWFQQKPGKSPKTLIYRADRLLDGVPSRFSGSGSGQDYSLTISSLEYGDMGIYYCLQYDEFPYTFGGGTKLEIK	252

Lab note: next binder to report on.
Task item: Name the recorded Mean fluorescence intensity for 556F6B8 (mouse antibody purified from hybridoma) (antibody, V domains shown, also called mAb123-556F6B8) VH: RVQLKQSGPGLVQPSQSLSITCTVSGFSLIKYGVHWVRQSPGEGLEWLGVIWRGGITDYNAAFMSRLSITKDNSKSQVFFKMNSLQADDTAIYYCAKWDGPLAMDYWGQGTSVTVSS VL: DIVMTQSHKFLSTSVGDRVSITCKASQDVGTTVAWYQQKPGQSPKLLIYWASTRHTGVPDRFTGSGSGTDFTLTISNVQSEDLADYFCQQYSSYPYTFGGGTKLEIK .
Reply: 74.9
